assay: NCI Yeast Anticancer Drug Screen. Data for the rad50 strain (AID 155);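 further: 0% = growth of vehicle-only cultures of the same strain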; details: S. cerevisiae rad50 strain growth inhibition; at 50.0 µM; active compounds read high
Compounds without any hit were thinned out: in the full panel of roughly 79,000, 15% have a hit.
Label Satisfied when growth inhibition >= 90%; otherwise Not satisfied.

Quick check, growth inhibition >= 90%? C[N+]1(CCCl)CC[N+](C)(CCCl)CC1 (centres undefined)
Satisfied

Quick check, growth inhibition >= 90%? CCCCCCCCCCCC(=O)[O][Hg][c]1ccccc1
Satisfied

Quick check, growth inhibition >= 90%? COc1ccc(CC2C(=O)NC(C)C(=O)N(C)C3C(=O)N(C)C(Cc4ccc(O)c(c4)Oc4ccc(cc4)C3O)C(=O)NC(C)C(=O)NC(C)C(=O)N2C)cc1 (centres undefined)
Not satisfied

Quick check, growth inhibition >= 90%? CSc1ccc(NC(=O)C2c3[nH]c4ccccc4c3C3CCC(C(C)(C)C)CC3C2C(=O)O)cc1 (centres undefined)
Not satisfied

Quick check, growth inhibition >= 90%? COC(=O)c1c(C)ccc2c(O)c3c(cc12)C(=O)c1c2c(cc(O)c1C3=O)C1(C)OC(C)(O2)C(O)C(N(C)C)C1O (centres undefined)
Satisfied

Quick check, growth inhibition >= 90%? O=C(CCCC(=O)NNC(=O)Nc1cccc(S(=O)(=O)F)c1)NNC(=O)Nc1cccc(S(=O)(=O)F)c1
Not satisfied

Quick check, growth inhibition >= 90%? CN(C)C(=S)[S][Sb]([c]1ccccc1)[c]1ccccc1
Not satisfied

Quick check, growth inhibition >= 90%? CCCCN(CCCC)CC(C(C)=O)C(c1ccccc1)c1c(O)c2ccccc2oc1=O (centres undefined)
Not satisfied

Quick check, growth inhibition >= 90%? C[As](C)SCCC(CCCCC(=O)O)S[As](C)C (centres undefined)
Not satisfied

Quick check, growth inhibition >= 90%? CCOC(=O)NC(=S)[S][Sb]([S]C(=S)NC(=O)OCC)[S]c1nc2ccc(N=Nc3ccc(NS(=O)(=O)c4ccc(NC(=O)C(N5CC5)(N5CC5)N5CC5)cc4)cc3)cc2s1
Satisfied

Quick check, growth inhibition >= 90%? C[n+]1[se]nc2cc(C(=O)c3ccccc3)ccc21 (tested in a mixture with another compound)
Satisfied

Quick check, growth inhibition >= 90%? CC[N-]c1nnnn1CC.[Au+].c1ccc([PH+](c2ccccc2)c2ccccc2)cc1
Satisfied

Quick check, growth inhibition >= 90%? N#Cc1ccc(N=Cc2c([O-])ccc3ccccc23)cc1.[C-]#[O+].[C-]#[O+].[Ir]
Not satisfied

---

assay: NCI Yeast Anticancer Drug Screen. Data for the bub3 strain (AID 167); settings: S. cerevisiae bub3 mutant strain, at 5.0 µM (retest, dose inferred, filed as 0.5), active compounds read high
This is part of a sample that, as a whole, favours compounds with a hit. Of some 79,000 tested, about 15% had one in any assay.
Provide the reported growth inhibition of each item.
Please give a number only; it is taken to be in %.

# query: growth inhibition of entry O=C(c1ccccc1)c1c(CC(O)c2ccncc2)n(C(=O)c2ccccc2)c2ccccc12 (configuration not stated)
-3

# query: growth inhibition of entry CCC[CH2][Sn]([Cl])([CH2]C)[O][Sn]([Cl])([CH2]C)[CH2]CCC (configuration not stated)
84

# query: growth inhibition of entry COC(=O)C(Cl)(Br)CCl (configuration not stated)
9

# query: growth inhibition of entry CN(CCC(N)CC(=O)NC1C=CC(n2ccc(N)nc2=O)OC1C(=O)O)C(=N)N (configuration not stated)
68

# query: growth inhibition of entry O=P(CP(=O)(c1ccccc1)c1ccccc1)(c1ccccc1)c1ccccc1.[CH3][Sn]([CH3])([Cl])[Cl]
0

# query: growth inhibition of entry CCC1(O)C(=O)OCc2c1cc1n(c2=O)Cc2cc3ccccc3nc2-1 (configuration not stated)
12

# query: growth inhibition of entry O=P(CCCCP(=O)(c1ccccc1)c1ccccc1)(c1ccccc1)c1ccccc1.[Cl][Sn]([Cl])([c]1ccccc1)[c]1ccccc1
67

# query: growth inhibition of entry S=C(SSC(=S)N1CCCCC1)N1CCCCC1
70

# query: growth inhibition of entry O=S(=O)(O)/C(=C\c1ccccc1)c1ccccc1 (tested in a mixture with another compound)
97

# query: growth inhibition of entry CC(C)C(=O)CP(=O)(O)O
7

# query: growth inhibition of entry COC1=CC(C)(C)C=C([Se][Se]C2=CC(C)(C)C=C(OC)C2=O)C1=O
71

# query: growth inhibition of entry O=c1oc2ccccc2c(O)c1C(c1ccc(-c2ccccc2)cc1)c1c(O)c2ccccc2oc1=O
14

# query: growth inhibition of entry CC(C)C1=CC23CCC4C(C)(C(=O)O)CCCC4(C)C2CC1OO3 (configuration not stated)
-3

# query: growth inhibition of entry CN(CCc1ccc(Br)cc1)CCN1CCCCC1
20

# query: growth inhibition of entry CC1=C[n+]2cc(C)ccc2Sc2c1ccc1ccccc21
0

# query: growth inhibition of entry O=C(N/N=C/c1ccc(F)cc1)c1ccc(N(CCCl)CCCl)cc1
-3

# query: growth inhibition of entry O=CNc1ccccc1.[Hg]
99

# query: growth inhibition of entry C[CH2][Sn]([CH2]C)([S]CCS(=O)(=O)O)[S]CCS(=O)(=O)O (tested in a mixture with another compound)
-1

# query: growth inhibition of entry CCC[CH2][Sn]1([CH2]CCC)[O]Cc2nc(C)ccc2[O]1
33

# query: growth inhibition of entry CCCCC1CCCCCCc2[nH]c(/C=C3\N=C(c4ccc[nH]4)C=C3OC)cc21 (configuration not stated)
29

# query: growth inhibition of entry CCOP(=O)(OCC)/C(C#N)=C/c1cccc(Br)c1
5

# query: growth inhibition of entry Oc1cccc[c]1[Hg][Cl]
99

# query: growth inhibition of entry Oc1cccnc1[Se]
-21

# query: growth inhibition of entry Oc1cccc2cccnc12 (tested in a mixture with another compound)
-5

# query: growth inhibition of entry CCc1ccc2c(c1)N(CCCN(CCCl)CCCl)c1ccccc1S2
-1

# query: growth inhibition of entry CCC(=O)C(CCN1CCC2(CCCc3ccccc32)CC1)(c1ccccc1)c1ccccc1
-2

# query: growth inhibition of entry c1cc[c]([Sn]([c]2ccccc2)([c]2ccccc2)[CH]2CCCCC2)cc1
1

# query: growth inhibition of entry CCC[CH2][Sn]([N]=C=S)([N]=C=S)[N]=C=S.O=P(c1ccccc1)(c1ccccc1)c1ccccc1.O=P(c1ccccc1)(c1ccccc1)c1ccccc1
-4

# query: growth inhibition of entry CC(=O)Oc1cccc2c1CC(C[Se]c1ccccc1)C(=O)O2 (configuration not stated)
-7

# query: growth inhibition of entry CCCCCCCCCCCCCCCCCC[N+](C)(C)C
99

# query: growth inhibition of entry CCN(Cc1ccccc1)CC(O)c1ccc(Cl)c(Cl)c1 (configuration not stated)
0

# query: growth inhibition of entry Cn1cc(NC(=O)c2cc(NC(=O)CN=C(N)N)cn2C)cc1C(=O)NCCC(=N)N
6

# query: growth inhibition of entry CC1(O)CC([CH2][Hg][I])OC([CH2][Hg][I])C1 (configuration not stated)
99

# query: growth inhibition of entry CCC(C)(c1ccc(O)cc1)c1ccc(O)cc1
43

# query: growth inhibition of entry O=c1oc2ccccc2c(O)c1C1c2c(c3ccccc3oc2=O)Oc2c1c(=O)oc1ccccc21
9

# query: growth inhibition of entry CCC[CH2][Sn]([CH2]CCC)([S]C#N)[S]C#N
96

# query: growth inhibition of entry CC(=O)[O-].O=C([CH-]C(=O)c1ccccc1)c1ccccc1.O=C([CH-]C(=O)c1ccccc1)c1ccccc1.[Sm+3]
52

# query: growth inhibition of entry N=P(c1ccccc1)(c1ccccc1)c1ccccc1 (tested in a mixture with another compound)
-1

# query: growth inhibition of entry CC1CN1C1=C(F)C(=O)C(N2CC2C)=C(F)C1=O (configuration not stated)
99

# query: growth inhibition of entry CC(C)=[CH][Sb]([Br])([CH]=C(C)C)([CH]=C(C)C)[CH]=C(C)C
11

# query: growth inhibition of entry CN(N=O)C(=O)NNC(=O)N(C)N=O
-11

# query: growth inhibition of entry CN(C)C(=O)Oc1c(Cl)cc(Cl)c(Cl)c1Cl
2

---

Provide the reported growth inhibition of each item.
assay: NCI Yeast Anticancer Drug Screen. Data for the mlh1 rad18 strain (AID 175); settings: S. cerevisiae mlh1 rad18 strain growth inhibition; at 5.0 µM (retest, dose inferred, filed as 0.5); active compounds read high
The panel holds about 79,000 compounds, 15% with a hit somewhere; the sample as a whole holds those more often.
Please give a number only; it is taken to be in %.

# query: growth inhibition of entry CCOc1cc(/C=C/[N+](=O)[O-])ccc1O
-93

# query: growth inhibition of entry O=C(NNC(=O)OCC(Cl)(Cl)Cl)OCC(Cl)(Cl)Cl
-1

# query: growth inhibition of entry C[C@H](N)C(=O)N[C@@H]1[C@H]2C(=C(O)C[C@@H](O)[C@@H]2O)C(=O)O[C@]1(C)C(Cl)Cl
6

# query: growth inhibition of entry Cc1cc(-c2ccccc2)cc(C)[n+]1[O-]
-4

# query: growth inhibition of entry CC[C@@]1(O)C[C@H](OC2CC(N)C(O)C(C)O2)c2c(O)c3c(c(O)c2[C@H]1C(=O)OC)C(=O)c1cccc(O)c1C3=O (stereo partly specified)
50

# query: growth inhibition of entry O=C(O)C1C2c3cccc4cccc(c34)C12 (stereo unspecified)
-112

# query: growth inhibition of entry CNC(Cc1ccccc1)c1ccc(OC)c(OC)c1 (stereo unspecified)
57

# query: growth inhibition of entry CCC[CH2][Sn]1([CH2]CCC)[O]CC[S]1
84

# query: growth inhibition of entry N#Cc1ccccc1C(Cl)(Cl)Cl
9

# query: growth inhibition of entry CC(=O)C1CCC2C3CCC4CC([N+]5(C)CCCCC5)CCC4(C)C3CCC12C (stereo unspecified)
18

# query: growth inhibition of entry O=[As]c1ccc(Cl)cc1Cl (stereo unspecified)
100

# query: growth inhibition of entry CN(C)CC1CC2C3CC=C4CC(O)CCC4(C)C3CCC2(C)C1=O (stereo unspecified)
-12

# query: growth inhibition of entry CNCC(O)c1ccc(O)c(O)c1.[Pt].c1ccc([PH+](c2ccccc2)c2ccccc2)cc1.c1ccc([PH+](c2ccccc2)c2ccccc2)cc1
13

# query: growth inhibition of entry CC(C)(Br)C(=O)C(Br)Br
98

# query: growth inhibition of entry CN(C)C(=O)Oc1c(Cl)cc(Cl)c(Cl)c1Cl
19

# query: growth inhibition of entry O=[N+]([O-])/C=C/c1ccccc1
71

# query: growth inhibition of entry CC(C)(C)CC(C)(C)c1ccc(O)cc1
-9

# query: growth inhibition of entry Cc1c([N+](=O)[O-])oc2ccc3ccccc3c12
82

# query: growth inhibition of entry CCN(CC)C1CC(O[C@H]2C[C@](O)(C(=O)CO)Cc3c(O)c4c(c(O)c32)C(=O)c2c(OC)cccc2C4=O)OC(C)C1O (stereo partly specified)
98

# query: growth inhibition of entry O=C(CI)c1ccc[nH]1
74

# query: growth inhibition of entry O=[n+]1c2ccccc2n([O-])c2ccccc21.[Cl][Ni][Cl]
92

# query: growth inhibition of entry CCCCCCCCCCCCCCCCP(=O)(O)OCC(N)C(=O)O (stereo unspecified)
-34

# query: growth inhibition of entry C[N+]1(CCCl)CC[N+](C)(CCCl)CC1 (stereo unspecified)
13

# query: growth inhibition of entry CSc1ccc2c(c1)c(CCN)c(C)n2Cc1ccccc1Cl
13

# query: growth inhibition of entry CCS(=O)(=O)[O][Sn]([CH2]C)([CH2]C)[O]S(=O)(=O)CC
44

# query: growth inhibition of entry CC(C)C1(NC(=O)C2C=C3c4cccc5[nH]cc(c45)CC3N(C)C2)OC2(O)C3CCCN3C(=O)C(Cc3ccccc3)N2C1=O (stereo unspecified)
-2

# query: growth inhibition of entry CC12CCC(O)CC1CCC1C2CCC2(C)C(C(=O)CC(O)C(F)(F)F)CCC12 (stereo unspecified)
0

# query: growth inhibition of entry CCOP(=O)(CP(=O)(OCC)OCC)OCC.[Cl][Sn]([Cl])([c]1ccccc1)[c]1ccccc1
1

# query: growth inhibition of entry COc1cc2c(cc1OC)C13CCN4CC5=CCOC6CC(=O)N2C1C6C5CC43 (stereo unspecified) (tested in a mixture with another compound)
-2

# query: growth inhibition of entry N=P(c1ccccc1)(c1ccccc1)c1ccccc1.[O]=[Cr](=[O])([OH])[O][Cr](=[O])(=[O])[OH]
4

# query: growth inhibition of entry Cc1ccc([C@H]2N[C@@H]2c2ccccn2)cc1
-5

# query: growth inhibition of entry CCOc1ccc(/C=C/[N+](=O)[O-])cc1[N+](=O)[O-]
12

# query: growth inhibition of entry CCCCC1CCCCCCc2[nH]c(/C=C3\N=C(c4ccc[nH]4)C=C3OC)cc21 (stereo unspecified)
34

# query: growth inhibition of entry [N-]=[N+]=NS(=O)(=O)c1cccc([N+](=O)[O-])c1
-5

# query: growth inhibition of entry O=C1c2ccccc2-c2cccc3cccc1c23
-1

# query: growth inhibition of entry CCC[CH2][Sn]1([CH2]CCC)[O]C(c2ccccn2)S(=O)(=O)[O]1 (stereo unspecified)
10

# query: growth inhibition of entry CCCCCCCCCC[Se]C#N
51

# query: growth inhibition of entry C[C@]12CC[C@H](OC(=O)COc3ccc(N(CCCl)CCCl)cc3)C[C@@H]1CC[C@@H]1[C@@H]2CC[C@]2(C)NC(=O)CC[C@@H]12
25

# query: growth inhibition of entry C=C[C@H]1CN2CC[C@H]1C[C@@H]2[C@@H](O)c1ccnc2ccccc12
2

# query: growth inhibition of entry [Ni+2].[O-][Cl+3]([O-])([O-])O.c1ccc([PH+](CC[PH+](c2ccccc2)c2ccccc2)c2ccccc2)cc1.c1ccc([PH+](CC[PH+](c2ccccc2)c2ccccc2)c2ccccc2)cc1
3

# query: growth inhibition of entry CC12CCC(O)CC1=CCC1C2CCC2(C)C(NC(=O)C3CCCN3C(=O)CN(CCCl)CCCl)CCC12 (stereo unspecified)
12
